target: Prolyl endopeptidase-like (Mus musculus) (UniProt Q8C167); assay: purified PREPL inhibitors, PREPL inhibitor project, biochemical, gel-based competitive ABPP, fluorescence, HTS hits (AID 624481); details: at 20 µM, hits give high values
Sequence (Q8C167 whole entry, looked up): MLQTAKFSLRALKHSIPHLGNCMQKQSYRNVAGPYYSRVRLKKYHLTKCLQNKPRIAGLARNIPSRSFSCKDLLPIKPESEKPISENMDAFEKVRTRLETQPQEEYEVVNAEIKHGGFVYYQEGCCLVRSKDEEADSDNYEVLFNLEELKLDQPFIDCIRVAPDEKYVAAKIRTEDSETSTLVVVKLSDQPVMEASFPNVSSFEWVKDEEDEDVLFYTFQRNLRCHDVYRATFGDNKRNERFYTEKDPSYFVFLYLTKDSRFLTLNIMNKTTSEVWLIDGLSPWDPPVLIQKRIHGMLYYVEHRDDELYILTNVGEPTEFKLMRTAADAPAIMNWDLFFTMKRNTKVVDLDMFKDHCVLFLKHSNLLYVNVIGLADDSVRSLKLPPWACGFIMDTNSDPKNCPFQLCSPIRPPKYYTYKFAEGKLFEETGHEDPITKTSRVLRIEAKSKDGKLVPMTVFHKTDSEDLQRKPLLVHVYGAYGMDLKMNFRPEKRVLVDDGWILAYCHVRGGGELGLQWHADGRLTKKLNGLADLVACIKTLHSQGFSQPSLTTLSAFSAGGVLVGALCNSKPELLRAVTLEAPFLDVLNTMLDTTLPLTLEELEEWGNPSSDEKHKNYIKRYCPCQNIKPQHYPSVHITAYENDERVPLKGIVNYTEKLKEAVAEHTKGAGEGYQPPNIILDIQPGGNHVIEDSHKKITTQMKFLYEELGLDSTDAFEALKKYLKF
measurement label: inhibition (%)
Give the value in % but do not write % after it.

-- ask // lookup inhibition for C#CCOCCOCCOCCNc1nc(N2CCN(C(=O)CCCCCCCCCCNC(=O)[C@H](CCCCN)n3cc(CCO)nn3)CC2)nc(N2CCN(C(=O)CCCCCCCCCCNC(=O)[C@H](CCCCN)n3cc(C[C@@H](C)CC)nn3)CC2)n1
-- reply -141

-- ask Give the measured inhibition of c1ccc(CNc2nc(-c3ccccn3)nc3ccccc23)cc1 .
-- reply -89

-- ask Which inhibition reading was recorded for the molecule CCC[C@@H](CN1CCC[C@H]1CN1C(N)=NC[C@@H]1Cc1ccccc1)N1C[C@@H]([C@H](C)CC)N(CCCC2CCCC2)C1=N ?
-- reply 9

-- ask For the molecule Cc1ccc(-c2csc(=Nc3cccnc3)n2CCCn2ccnc2)cc1C , what inhibition is on record?
-- reply -52

-- ask So what's the measured inhibition for this one? CC(C)c1ccc(CNc2ccc(N3CCOCC3)cc2)cc1
-- reply -12

-- ask Please look up its inhibition: Cc1ccc(OCC(=O)Nc2ccc(N3CCN(C(=O)c4ccco4)CC3)cc2)c(C)c1
-- reply -7

-- ask Name the reported inhibition value associated with the molecule COc1ccc(N2CCN(C(=O)CN3C(=O)NC(C)(c4ccc5ccccc5c4)C3=O)CC2)cc1 (stereo not given)
-- reply -26

-- ask Value lookup for inhibition; key = CC(C)[C@@H]1CN=C(N)N1C[C@@H]1CCCN1C[C@H](C)N1C[C@@H](Cc2ccccc2)N(CCc2ccc(Cl)c(Cl)c2)C1=N
-- reply -62

-- ask Recorded inhibition of C#CCOCCOCCOCCNc1nc(N2CCN(C(=O)CCCCCCCCCCNC(=O)[C@H]([C@@H](C)CC)n3cc(CCCCCN)nn3)CC2)nc(N2CCN(C(=O)CCCCCCCCCCNC(=O)[C@H](CO)n3cc(CCCCCN)nn3)CC2)n1 , please.
-- reply -61

-- ask Need inhibition of CCCCN1C(=N)N([C@@H](CN2CCC[C@H]2CN2C(N)=NC[C@@H]2Cc2ccccc2)C(C)C)C[C@H]1Cc1ccccc1 , thanks.
-- reply -44

-- ask If you can, please state the reported inhibition value of O=C(Nc1ccc2c(c1)OCCO2)c1cccc2nc3ccccc3nc12 .
-- reply -12

-- ask Which inhibition is reported for this molecule? CN(C)c1ccc(C=NNC(=S)NCc2ccccc2)cc1
-- reply -20

-- ask If you can, please state the reported inhibition value of COc1ccc2c(CC(=O)Nc3ccc(N4CCOCC4)cc3)coc2c1 .
-- reply -44

-- ask May I ask what inhibition has been recorded for CCC(=O)N1CCN(c2ccc(NC(=O)COc3cccc(C)c3C)cc2)CC1 ?
-- reply -49

-- ask Please report the recorded inhibition for Nc1cc([N+](=O)[O-])cc2oc(-c3ccccc3)cc12 .
-- reply -25
